The reported measurements were obtained from patent US20020058247A1.

So I've got a bunch of binders here, and I need their log10 of OD values.
assay_target: T1, Full length recombinant HBcAg (rHBcAg) encompassing residues 1-183 (hepatitis B virus, UniProt P03146 1-183)
T1 construct: range 1-183; also called hepatitis B virus core antigen
T1 sequence (P03146 whole entry, the tested form may be a part): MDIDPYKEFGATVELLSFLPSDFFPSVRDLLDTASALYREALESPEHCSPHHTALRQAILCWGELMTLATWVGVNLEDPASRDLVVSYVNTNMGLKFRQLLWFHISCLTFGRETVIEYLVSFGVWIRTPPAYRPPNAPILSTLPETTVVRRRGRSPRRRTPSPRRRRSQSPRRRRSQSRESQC
assay_name: EIA, support-bound peptide, HBcAg 20 ug/ml
Values are log10 of OD in OD.

Exercise: Report log10 of OD for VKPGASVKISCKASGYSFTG (also called Peptide # 25) [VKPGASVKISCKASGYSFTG (SEQ. ID. No. 28)] please.
Key: 0.42

Exercise: Report log10 of OD for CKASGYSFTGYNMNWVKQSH (also called Peptide # 26) [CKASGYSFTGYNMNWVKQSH (SEQ. ID. No. 29)] please.
Key: 0.17

Exercise: Report log10 of OD for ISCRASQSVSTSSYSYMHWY [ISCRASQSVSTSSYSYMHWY (SEQ. ID. No. 17)] please.
Key: 0.42

Exercise: Report log10 of OD for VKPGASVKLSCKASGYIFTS (also called Peptide # 2; Pept. #2) [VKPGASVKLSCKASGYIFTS (SEQ. ID. No. 5)] please.
Key: 0.54

Exercise: Report log10 of OD for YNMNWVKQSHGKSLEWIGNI (also called Peptide # 27) [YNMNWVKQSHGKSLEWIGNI (SEQ. ID. No. 30)] please.
Key: -0.52

Exercise: Report log10 of OD for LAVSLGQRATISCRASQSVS [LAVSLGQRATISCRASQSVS (SEQ. ID. No. 16)] please.
Key: 0.42
